Tested on: HS 578T breast
Method Notes: NCI-60 one-dose screen, 48 h (100 = growth as untreated, 0 = no growth, -100 = all killed)
Condition Context: 10 µM
This is part of a sample that, as a whole, favours compounds with a hit. Of some 83,000 tested, about 20% had one in any assay.
Threshold 60%: growth strictly smaller gives 1, otherwise -1.

Consider the following illustrative entries.
Challenge: Given the entry ClCc1cccc(CSc2ncnc3c2ncn3Cc2cccc(CCl)c2)c1 , would its reported growth be below 60%?
Response given: 1

Challenge: What do you get for CN1CCN(Cc2ccc(NC(=O)c3cncc(C#Cc4ncc5cnccn45)c3)cc2C(F)(F)F)CC1 ?
Response given: 1

Continuing:
Challenge: Determine if COc1ccc(Sc2[nH]c(C=O)c3ccccc23)cc1 shows growth strictly lower than 60%.
Response given: 1

Challenge: Next entry: Oc1c(C(c2ccc(F)cc2)N2CCCCC2)ccc2cncnc12 (stereo not drawn)
Response given: 1

Challenge: Another molecule to check: COc1cc(C2CC(c3ccc(Nc4ccnc5cc(Cl)ccc45)cc3)=NN2c2ccccc2)cc(OC)c1OC (stereo not drawn)
Response given: -1

Challenge: Likewise for N#Cc1c(N)n(C2OC(CO)C(O)C2O)c2ncnc(N)c12 (stereo not drawn) ?
Response given: 1

Challenge: Query Cc1c(C)c(C)c([N+](=O)[O-])c([N+](=O)[O-])c1C next
Response given: -1

Challenge: Now the same for COc1cc(C(=O)/C=C/c2cn(-c3ccccc3)nc2-c2cccc(Nc3ccnc4cc(Cl)ccc34)c2)cc(OC)c1OC
Response given: -1

Challenge: Entry to check: Cn1nc(C(F)(F)F)cc1-c1cc(Cl)c(OCc2ccc(Cl)cc2)c(-c2ccc(Cl)c(C(F)(F)F)c2)c1O
Response given: 1

Challenge: Ok, now O=C(Nc1ccccc1Cl)Oc1ccc2ccccc2c1
Response given: -1

Challenge: Try O=C1CC2(O)CSc3nc(=O)cc(n32)N1 (stereo not drawn) next.
Response given: -1
